system: p38-beta; construct: gene MAPK11; details: concentration: 1 μM, replicates: in singlicate; n = 1;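 further: KINOMEscan kinase panel screen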
Measured quantity: %Inh

Return reported %Inh values for all items listed beneath this line.
1. CNc1nccc(-c2ccc3c(N)n[nH]c3c2)n1
2. CCNC(=O)/C=C/c1n[nH]c2cc(Sc3ccccc3C(=O)NC)ccc12
3. CN1CCN(Cc2ccc(NC(=O)Nc3ccc(N(C)c4ccnc(Nc5ccc(CS(C)(=O)=O)cc5)n4)cc3)cc2)CC1.Cl
4. Nc1ncc(-c2cn[nH]c2)c2scc(-c3ccc4c(c3)CCN4C(=O)Cc3ccccc3)c12

A)
1: 0%; 2: 11%; 3: 0%; 4: 0%
